Recorded values, source ChEMBL document CHEMBL5356952.

experiment: Metabolic stability in rat liver microsomes assessed as half life preincubated for 5 mins followed by NADPH addition and measured upto 60 mins by LC-MS analysis; format: ADME, Microsome; conditions: time < 65 min
Test Readout: half-life (h)

[2H]C([2H])(Cc1cn(S(=O)(=O)c2ccc(C3CC3)cc2)c2ccc(OC)cc12)C(=O)O; 1.06

(P) [2H]C([2H])(Cc1cn(S(=O)(=O)c2ccc(OC)cc2)c2ccc(OC)cc12)C(=O)O
(Q) COc1ccc(S(=O)(=O)n2cc(CCC(=O)O)c3cc(OC)ccc32)cc1
Query string: Hey, which is lower on measured half-life, P or Q ? Output the label that corresponds to your choice.
Result string: Q
